pKi: −log10 of the molar value.
// pKi collected for SRPK1 (Homo sapiens, UniProt Q96SB4)

Answer with reported pKi of COc1c(Nc2cc(C)[nH]n2)nc(Sc2ccc(S(=O)(=O)Cc3cccc([N+](=O)[O-])c3F)cc2F)nc1N1CCCCC1
< 6.30

Answer with reported pKi of COc1c(Nc2cc(C)[nH]n2)nc(Sc2ccc(S(=O)(=O)Cc3cccc([N+](=O)[O-])c3F)cc2F)nc1N1CCOCC1
< 6.82

====

Would you mind telling me the reported pKi of each entry?
pKi is defined as minus the log10 of a concentration measured in mol/L.

Write down measured pKi (LRRK2 (Homo sapiens, UniProt Q5S007)) for this compound. COc1c(Nc2cc(C)[nH]n2)nc(Sc2ccc(S(=O)(=O)Cc3cccc([N+](=O)[O-])c3F)cc2F)nc1N1CCCCC1 [Centrinone-B]
8.12

Write down measured pKi (LRRK2 (Homo sapiens, UniProt Q5S007)) for this compound. COc1c(Nc2cc(C)[nH]n2)nc(Sc2ccc(S(=O)(=O)Cc3cccc([N+](=O)[O-])c3F)cc2F)nc1N1CCOCC1 [Centrinone]
8.68
